- tgt: DGKα (Homo sapiens (Human), UniProt P23743)
- Sequence (P23743 other isoform, or with tags, fused parts or gaps): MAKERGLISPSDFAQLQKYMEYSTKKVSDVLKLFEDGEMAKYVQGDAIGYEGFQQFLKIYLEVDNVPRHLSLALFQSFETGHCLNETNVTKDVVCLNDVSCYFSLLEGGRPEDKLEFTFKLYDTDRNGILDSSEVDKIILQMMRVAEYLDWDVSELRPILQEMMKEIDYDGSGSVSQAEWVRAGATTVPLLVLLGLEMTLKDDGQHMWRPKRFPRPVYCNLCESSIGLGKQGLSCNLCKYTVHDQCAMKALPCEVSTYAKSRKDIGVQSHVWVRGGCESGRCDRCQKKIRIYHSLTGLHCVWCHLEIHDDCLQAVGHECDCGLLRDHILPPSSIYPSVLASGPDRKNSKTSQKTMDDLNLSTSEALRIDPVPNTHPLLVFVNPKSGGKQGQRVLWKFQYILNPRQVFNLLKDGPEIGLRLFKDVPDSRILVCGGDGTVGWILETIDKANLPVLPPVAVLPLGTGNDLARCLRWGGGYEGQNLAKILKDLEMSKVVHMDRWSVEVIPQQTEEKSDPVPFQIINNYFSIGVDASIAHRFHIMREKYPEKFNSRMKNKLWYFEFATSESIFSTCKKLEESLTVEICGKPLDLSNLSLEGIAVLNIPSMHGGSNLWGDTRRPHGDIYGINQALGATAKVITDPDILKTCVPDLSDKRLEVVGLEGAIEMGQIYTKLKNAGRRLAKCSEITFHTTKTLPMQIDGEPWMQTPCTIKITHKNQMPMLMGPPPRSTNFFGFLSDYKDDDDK
- test: Human DGKα kinase activity inhibition assay (ADP-Glo)
- Assay type: biochemical
- settings: recombinant full-length human DGKα, 55 μM ATP, 7 μM 1,2-dioleoyl-sn-glycerol, read-out: IC50 values of examples in in vitro human DGKa kinase activity inhibition assays
measurement.kind: pIC50
// pIC50 here means minus log10 of the molar concentration (mol/L)

{"molecule": "CCCc1noc(C2CCN(c3c(C#N)c(=O)n(C)c4ccccc34)CC2)n1", "measurement.kind": "pIC50", "value.observed": 6.43}
{"molecule": "Cn1c(=O)c(C#N)c(N2CCC(c3cc(Cl)cc(Cl)c3)CC2)c2ccccc21", "measurement.kind": "pIC50", "value.observed": 7.28}
{"molecule": "CN1CCN(c2ccc(C3CCN(c4c(C#N)c(=O)n(C)c5ccccc45)CC3)cc2)C(=O)C1", "measurement.kind": "pIC50", "value.observed": 7.11}

Using known records, supply pIC50 for Cn1c(=O)c(C(N)=O)c(N2CCC(c3nc4ccccc4o3)CC2)c2ccc(C(F)(F)F)cc21
8.19

Using known records, supply pIC50 for Cc1ccccc1-c1noc(C2CCN(c3c(C#N)c(=O)n(C)c4ccccc34)CC2)n1
8.10

Using known records, supply pIC50 for CC(C)c1ccc(C2CCN(c3c(C#N)c(=O)n(C)c4ccccc34)CC2)cc1
8.52

Using known records, supply pIC50 for CCC(C)c1ccc2c(c1)c(N1CCC(C)(c3nc4cc(C)ccc4o3)CC1)c(C#N)c(=O)n2C (stereo not shown)
6.34

Using known records, supply pIC50 for Cc1ccc2oc(C3CCN(c4c(C#N)c(=O)n(C)c5ccc(C6CCC6(C)C)cc45)CC3)nc2c1 (stereo not shown)
7.29
